Below, each of the compounds is paired with its reported normalized growth value.
test: chemical genetic growth profiling, strain panel (AID 1159580);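 further: tested at 20 µM; growth read once vehicle control cultures reached saturation at 30 °C; 1 = growth at the plate median or of vehicle wells; lower values mean less growth of the strain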; settings: S. cerevisiae deletion strains, growth OD, locus YNL153C, strain GIM3, stronger effect = lower value
Out of some 5,500 compounds screened, about 2,000 (36%) were called active. Inconclusive results (about 18%) are left out. The list shows a part of the results.

These solved cases illustrate the format of a correct answer.
• COC(=O)Cc1nc(NC(=O)c2ccccc2)sc1C = 1 (inactive)
• COC(=O)c1ccccc1-n1cccc1C(=O)OC = 1 (inactive)
• CCOC(=O)c1c(Nc2ccccc2)sc([N+](=O)[O-])c1N = 0.986 (inactive)
• CC1=C(C(=O)O)N2C(=O)[C@@H](NC(=O)[C@H](N)C3=CCC=CC3)C2SC1 (stereo partly specified) = 1.02 (inactive)
• Cn1cnc([N+](=O)[O-])c1Sc1ncnc2nc[nH]c12 = 0.995 (inactive)

[ask] Quick one: normalized growth of N#C/C(=C\c1ccc(O)cc1)C(=O)O ?
[reply] 0.953 (inactive)
